- experimentDescription: DUSP6 inhibitors restoring Erk phosphorylation by chemical complementation, primary imaging in DUSP6-transfected HeLa (AID 609)
- measurementSetup: HeLa MKP-3 transfected, phospho-Erk imaging KS statistic; measured here: nuclear c-Myc green intensity z-score; at 10 µM; cells stimulated with TPA for 15 min
Please assign a class to every record based on measured z-score, with ranges bottom = under -0.2, middle = from -0.2 up to 0.9, top = 0.9 and over

CCCc1cc(NCCCCO)n2c(nc3ccccc32)c1C#N    middle
N#Cc1nc(-c2cccs2)oc1NCc1ccccc1    top
CCCCc1nc2sc3c(c2c(=O)[nH]1)CCC3    middle
CC(=O)/C(C#N)=C1\NC(=O)C(Cc2ccccc2Cl)S1 (configuration not stated)    middle
CCCc1cc(=O)oc2c(C)c(O)c(CN3CCCCC3)cc12    bottom

Which bin, given its z-score, does `C=CCc1cccc(CNc2nc3ccccc3n2C(C)C)c1O` occupy?
top

Which bin, given its z-score, does `CCCCc1nc(N2CCOCC2)c(C#N)c2c1CCCC2` occupy?
middle

Which bin, given its z-score, does `Cc1ccc2cc(CNC(C)C)c(=O)[nH]c2c1` occupy?
bottom

Which bin, given its z-score, does O=C1C(=O)N(Cc2cccnc2)C(c2ccccn2)/C1=C(/O)c1ccc(F)cc1 (configuration not stated) occupy?
top

Which bin, given its z-score, does CC12CN3CC(C)(CN(C1)C3c1ccc(Br)cc1O)C2 (configuration not stated) occupy?
bottom

---

- systemTested: Voltage-gated potassium channel subunit beta-2 (Rattus norvegicus) (UniProt P62483)
- Sequence (P62483 whole entry, looked up): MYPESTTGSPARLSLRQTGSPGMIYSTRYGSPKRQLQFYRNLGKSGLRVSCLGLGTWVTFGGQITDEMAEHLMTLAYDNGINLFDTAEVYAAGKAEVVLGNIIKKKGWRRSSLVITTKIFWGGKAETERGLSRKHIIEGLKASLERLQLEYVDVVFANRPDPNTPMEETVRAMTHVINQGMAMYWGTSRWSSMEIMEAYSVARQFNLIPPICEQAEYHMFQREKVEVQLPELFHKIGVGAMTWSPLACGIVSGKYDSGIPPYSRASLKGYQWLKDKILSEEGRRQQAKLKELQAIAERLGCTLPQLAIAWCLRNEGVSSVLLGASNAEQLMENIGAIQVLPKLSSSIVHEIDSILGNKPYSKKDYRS
- experimentDescription: KvBeta positive modulators, primary screen, biochemical, NADPH fluorescence (AID 623);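 note: fluorescence intensity change per second fitted from 20 to 320 s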
- measurementSetup: Recombinant KvBeta, NADPH fluorescence decrease slope, 10 min; at 10 µM; stronger effect = lower value
Active and inactive are the calls of the source.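 How the source made its calls: active means NADPH fluorescence slope more negative than the mean of all samples by about 3 SD, 99.7% confidence; inactive means the rest.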
readoutType: NADPH fluorescence slope

// below: answered molecules
COC(=O)n1c(=S)oc2cc(Cl)ccc21    1.8e-05 (inactive)
CC1(C)Cc2[nH]c(=S)c(C#N)cc2CO1    -0.000113 (inactive)
CC1CCN(c2ncnc3c2cnn3Cc2ccc(Cl)cc2)CC1    -1.7e-05 (inactive)
Cc1nc(=O)c(-c2ccccc2)c(C)n1-c1ccc(S(N)(=O)=O)cc1    -4.5e-05 (inactive)
COc1ccc(N2C(N)=C(C#N)C(c3cccnc3)C3=C2CC(C)(C)CC3=O)cc1 (stereo unspecified)    -0.000329 (inactive)

Measured NADPH fluorescence slope of `O=C(NCCSc1c[nH]c2ccccc12)c1ccc(Br)o1` : -4.4e-05 (inactive)

Measured NADPH fluorescence slope of COC(=O)C1(C#N)C(c2ccccc2)C1(C(=O)OC)C(=O)OC (stereo unspecified) : -2.1e-05 (inactive)

Measured NADPH fluorescence slope of `COc1ccc(-n2c(Cc3cccn3C)nnc2SCC(=O)Nc2cccc(OC)c2)cc1` : 2.3e-05 (inactive)

Measured NADPH fluorescence slope of `Cc1nn(CC(N)=O)c(=O)c2ccccc12` : -0.00011 (inactive)

Measured NADPH fluorescence slope of CCOC(=O)C1=C(C)N(C)C(=O)NC1c1ccccc1OC (stereo unspecified) : -1.2e-05 (inactive)

Measured NADPH fluorescence slope of `CC(NC(=O)Nc1nnc(C(F)(F)F)s1)(C(F)(F)F)C(F)(F)F` : -5.5e-05 (inactive)

---

- experimentDescription: inhibitors of E-selectin induction by TNFa, primary screen, imaging, HUVEC, immunofluorescence, MLSMR starter and 10KST1 sets (AID 487);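 note: 100% = median nuclei count of all wells on the same plate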
- measurementSetup: HUVEC TNFalpha-induced E-selectin immunofluorescence imaging, at 2 µM; measured here: cell number, toxicity
Catalogue of nuclei count readings, one per entry.
I only need the number, in %, no unit after it.

O=C(Nc1ccc2nc(-c3cccs3)[nH]c2c1)c1ccco1    119

Measured nuclei count of `O=C(NCC(F)(F)F)Nc1cccnc1` : 119

Measured nuclei count of `N#C/C(=C\c1c(N2CCC(C(N)=O)CC2)nc2ccccn2c1=O)S(=O)(=O)c1ccccc1` : 144

Measured nuclei count of Cc1ccccc1N1C(=O)CC(Sc2nnc(-c3ccccc3)o2)C1=O (stereo not drawn) : 177

Measured nuclei count of CCN=C1SC(CC(=O)Nc2ccccc2)C(=O)N1CC (stereo not drawn) : 109

Measured nuclei count of Cc1ccc(S(=O)(=O)N(CC(O)CN2CCOCC2)c2cc(Cl)ccc2Cl)cc1 (stereo not drawn) : 112

Measured nuclei count of COc1ccc(Nc2ncc3c(n2)CC(c2ccc(OC)cc2)CC3=O)cc1 (stereo not drawn) : 97

Measured nuclei count of `O=C(CSc1nc(-c2ccccc2)cs1)NCc1ccco1` : 106

Measured nuclei count of `CN(c1ccc(OCc2nnc(-c3ccccc3)o2)cc1)S(=O)(=O)c1ccccc1` : 82

Measured nuclei count of `CCSc1nnc(NC(=O)NCC(F)(F)F)s1` : 96.4

Measured nuclei count of CCN1C(=O)c2ccccc2S(=O)c2ccc(C(=O)NC3CC3)cc21 (stereo not drawn) : 104

Measured nuclei count of `CC(=O)c1cccc(-n2nnnc2SCC(=O)N2CCCC2)c1` : 106

Measured nuclei count of `O=C(COc1ccc(F)cc1Br)N1CCc2ccccc21` : 103

Measured nuclei count of `COC(=O)c1c(NC(=O)CSc2nnnn2C)sc(C)c1C` : 101

Measured nuclei count of `CCc1nc2n[nH]c(N)c2c2c1CSC(C)(C)C2` : 168

Measured nuclei count of `CC1CCN(c2oc(-c3ccccc3F)nc2C#N)CC1` : 114

Measured nuclei count of `Nc1ccc2oc(-c3cc(Br)ccc3Cl)nc2c1` : 171

Measured nuclei count of CCSc1nnc(NC(=O)C2CCCN(S(=O)(=O)c3cnc[nH]3)C2)s1 (stereo not drawn) : 125

Measured nuclei count of CCc1ccc(NC(=O)CSC2=C(C#N)C(c3ccc4c(c3)OCO4)CC(=O)N2)cc1 (stereo not drawn) : 91.1

---

- experimentDescription: inhibitors of Sendai virus-induced IRF3 signaling, primary screen, TLR/RLR signaling modifier project, cell-based, Sendai virus stimulus, luciferase, 10K MLSCN set (AID 602276);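 note: firefly luciferase from ISG56 promoter only with Renilla not read in this screen; 0% = Sendai virus plus DMSO and 100% = medium plus DMSO without virus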
- measurementSetup: HEK293 RL24 IRF3 luciferase reporter, at 10 µM, stronger effect = higher value
Mark no for inhibition values under 10%, and yes for everything at or above.

Could you verify whether the entry COc1ccc(C2CC(=O)C3=C(C2)Nc2ccccc2N(C(=O)C2CC2)C3c2cccnc2)cc1OC (stereo unspecified) shows inhibition of no less than 10%?
yes

---

- systemTested: Voltage-gated potassium channel subunit beta-2 (Rattus norvegicus) (UniProt P62483)
- experimentDescription: KvBeta positive modulators, primary screen, biochemical, NADPH fluorescence (AID 623);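 note: fluorescence intensity change per second fitted from 20 to 320 s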
- measurementSetup: Recombinant KvBeta, NADPH fluorescence decrease slope, 10 min; at 10 µM; stronger effect = lower value
Catalogue of NADPH fluorescence slope readings, one per entry.
Give only the figure.

Measured NADPH fluorescence slope of `CC(C)c1nnc(NC(=O)c2ccc(N3C(=O)CCC3=O)cc2)s1` : 9.4e-07

---

- experimentDescription: inhibitors of E-selectin induction by TNFa, primary screen, imaging, HUVEC, immunofluorescence, MLSMR starter and 10KST1 sets (AID 487);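 note: 100% = median nuclei count of all wells on the same plate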
- measurementSetup: HUVEC TNFalpha-induced E-selectin immunofluorescence imaging, at 2 µM; measured here: cell number, toxicity
Catalogue of nuclei count readings, one per entry.
I only need the number, in %, no unit after it.

// below: answered molecules
C=CCc1cccc(/C=N/n2cnnc2)c1O    136
CCn1c(C(=O)N2CCC(C(=O)NCc3ccc4c(c3)OCO4)CC2)cc2sccc21    120
COc1ccccc1NC(=O)C1=C(C)Nc2nc(CCCO)nn2C1c1cccnc1 (stereo unspecified)    114
Cc1cccc(NC(=O)COc2ccc(Br)cc2)n1    124
CC(O)CNc1nc2c(c(=O)n(C)c(=O)n2C)n1Cc1cccc(C(F)(F)F)c1 (stereo unspecified)    176

Measured nuclei count of `COC(=O)c1c(O)ccc(Oc2ccccc2)c1C(=O)OC` : 107

---

- experimentDescription: inhibitors of TNFa-induced NFkB p65 translocation, primary screen, imaging, HUVEC, MLSMR starter and 10KST1 sets (AID 438);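 note: compound added about 3h40 before a 20 min TNFalpha stimulation; signal is the nuclear over cytoplasmic p65 intensity ratio per well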
- measurementSetup: HUVEC TNFa-induced p65 nuclear translocation; at 2 µM, stronger effect = higher value, 0% TNFa-plus-vehicle, 100% no-TNFa wells
Catalogue of inhibition readings, one per entry.
I only need the number, in %, no unit after it.

CCOc1cc(C(=O)NCc2nnc(SCC(=O)OC)n2C)cc(OCC)c1OCC    10
COCCn1c(SCc2c(F)cccc2Cl)nc2c1c(=O)[nH]c(=O)n2C    3.4
Cn1c(NCc2ccccc2)nc2c1c(=O)n(Cc1ccccc1)c(=O)n2C    -5.5
CN(Cc1nc(-c2ccncc2)no1)S(=O)(=O)c1ccccc1    0.6
O=C(CN(CCc1ccccc1)C(=O)CNS(=O)(=O)c1ccccc1)NCC1CCCO1 (stereo unspecified)    11.7
CC(C)Cc1nc(N2CCOCC2)c(C#N)c2c1COC(C)(C)C2    -7
N#Cc1c(N)nc2c(c1-c1ccncc1)CCCCC2    3.9
CCOc1ncccc1C(=O)Nc1ccc(Cl)cc1    -15
COc1ccc(-c2nc3c(n2O)CCC/C3=N\O)cc1    -8
CCC(=O)Nc1nc2ccccc2n1Cc1ccccc1C    -2.1

# input for lookup
Measured inhibition of `O=S(=O)(c1cccc(-c2csc(-c3ccccc3)n2)c1)N1CCOCC1` : -6
